tested on: CDK3; conditions: concentration: 1 μM,replicates: in singlicate; n = 1;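 note: KINOMEscan kinase panel screen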
So I've got a bunch of compounds here, and I need their %Inh values.
Give just the number in %; leave the unit off.

Documented %Inh of O=C(Nc1cccc(Oc2ccc3nccn3n2)c1)Nc1cccc(C(F)(F)F)c1 : 32

Documented %Inh of CN1CCN(CCNc2nc3cc(Oc4ccc(NC(=O)Nc5cc(C(F)(F)F)ccc5F)cc4)ccc3[nH]2)CC1.Cl.Cl : 6

Documented %Inh of Nc1nccc(-c2ccc3c(N)n[nH]c3c2)n1 : 13

Documented %Inh of Cn1ccc2ncnc(Oc3ccc(NC(=O)Nc4ccnc(C(F)(F)F)c4)c(Cl)c3)c21 : 0

Documented %Inh of CS(=O)c1ccc(-c2coc3ccc(-c4n[nH]c(=O)o4)cc23)cc1 (stereo not drawn) : 4

Documented %Inh of O=C(Nc1cccc(C(F)(F)F)c1)c1cccc(Oc2ccc3nccn3n2)c1 : 22

Documented %Inh of CS(=O)(=O)Nc1ccc(-c2ccnc3[nH]ccc23)cc1 : 15

Documented %Inh of CN(c1cccc(CNc2nc(Nc3ccc4c(c3)CC(=O)N4)ncc2C(F)(F)F)c1)S(C)(=O)=O : 22

Documented %Inh of CN1CCN(CCCNc2nccc(-c3c(-c4ccc(F)cc4)nn4cc(C(N)=O)ccc34)n2)CC1 : 18
